- System name: SARS-CoV-2 receptor-binding domain (SARS-CoV-2, UniProt P0DTC2)
Result type: binding result

Binder	Reported measurement
3517 (antibody, V domains shown) VH: QVQLQESGPGLVKPSETLSLTCTVSGGSISSYHWNWIRQPPGKGLEWIGYIYYSGSTNYNPSLKSRVSISVDTSKNQFSLKLSSVTAADTAVYYCAREMRRGYSGYDYWDLYAFDIWGQGTMVTVSS VL: DIQLTQSPSFLSASVRDRVTITCRASQDISSYLAWYQQKPGKAPKLLIYAASTLQSGVPSRFSGSGSGTEFTLTISSLQPEDFATYYCQQLNNYPHTFGQGTKLEIK	binds
3475 (antibody, V domains shown) VH: QVQLQESGPGLVKPSETLSLTCTVSGDSISSYHWNWIRQPPGKGLEWIGYIYYSGSTNYNPSLKSRVTISVHTSKNQFSLRLSSVTAADTAVYYCAKEMRRGYSGYDYWDLYAFDIWGQGTMVTVSS VL: DIQLTQSPSFLSASVGDRVTVTCRASQGISSYLAWYQQKPGKAPKLLIYAASTLQSGVPSRFSGSGSGTEFTLTISSLQPEDFATYYCQQLNSYPHTFGQGTKLEIK	binds
3476 (antibody, V domains shown) VH: QVQLQESGPGLVKPSETLSLTCAVSGGSISSYYWSWIRQPPGKGLEWIGYIYYSGRTNYNPSLKSRVTISVDTSKNQFSLKLSSVTAADTAVYYCAREMRRGYSGYDDWDLYAFDIWGQGTMVTVSS VL: DIQLTQSPSFLSTSIGDRVTITCRASQGISSYLAWYQQKPGKAPNLLIYAASTLQSGVPSRFSGSGSGTEFTLTISSLQPEDFATYYCQQLNSYPHTFGQGTKLEIK	binds
3581 (antibody, V domains shown) VH: QVQLQESGPGLVKPSETLSLTCTVSGGSISTYYWSWTRQPPGKGLEWIGNIYYSGSTIYNPSLKSRVTISVDTSKNQFSLKLTSVTAADTAVYYCAREMRRGYSGYDYWDLYAFDIWGQGTMVTVSS VL: DIQLTPSPSFLSASVGDRVTITCRASQGISSYLAWYQQTPGKAPKLLIYAASTLQSGVPSRFSGSGSGTEFTLTISSLQPEDFATYYCQQLNSYPHTFGQGTKLEIK	binds
